Target: protein kinase A, catalytic subunit
Experiment: cell-based or functional assay
Where no end group is shown, it is not given here. [ ]: non-standard residue; d: D form. hLeu = CC(C)CC[C@H](N)C(=O)O; Abu = CC[C@H](N)C(=O)O; Dap = NC[C@H](N)C(=O)O
A collection of binders and their measured Activity PKA

Use the examples below as a reference point.
{"binder": "RPRVS[Abu]F [TY 60002-61]", "valueObserved": "> 40 µM"}
{"binder": "RPRTS[Dap][hLeu] [TY 60002-96]", "valueObserved": "> 40 µM"}

Request: # lookup: Activity PKA of RPRTS[Abu][hLeu] [TY 60002-73]
Response: > 40 µM

Request: # lookup: Activity PKA of RPRTSA[hLeu] [TY 60002-50]
Response: > 40 µM
